# STUDY_TARGET: UniProt P10635
# Sequence (P10635 whole entry): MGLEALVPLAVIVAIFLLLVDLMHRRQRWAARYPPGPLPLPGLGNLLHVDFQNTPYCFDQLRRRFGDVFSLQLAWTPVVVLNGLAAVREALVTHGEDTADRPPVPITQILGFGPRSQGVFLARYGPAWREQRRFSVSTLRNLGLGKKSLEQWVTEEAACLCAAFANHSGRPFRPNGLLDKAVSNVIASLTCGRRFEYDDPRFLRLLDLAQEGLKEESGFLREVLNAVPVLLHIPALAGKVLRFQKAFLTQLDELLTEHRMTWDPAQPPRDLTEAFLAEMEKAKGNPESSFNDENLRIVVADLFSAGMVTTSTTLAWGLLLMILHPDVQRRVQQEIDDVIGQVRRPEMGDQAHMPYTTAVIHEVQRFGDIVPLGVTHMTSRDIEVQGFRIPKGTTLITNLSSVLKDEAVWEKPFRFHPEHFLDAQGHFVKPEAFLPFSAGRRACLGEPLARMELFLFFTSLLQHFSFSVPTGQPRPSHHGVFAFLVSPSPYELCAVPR
# ASSAY_PROTOCOL: Inhibition of CYP2D6 (unknown origin) at 10 uM relative to control
# Format: ADME
REPORTED_PROPERTY: inhibition at 10 µM

SMILES_RECORD: O=S(=O)(c1cccc(F)c1)n1ccc2c(N3CCNCC3)nc3ccccc3c21
REPORTED_PROPERTY: inhibition at 10 µM
RESULT: < 25%

* * *

# STUDY_TARGET: CYP2C9 (Homo sapiens, UniProt P11712)
# Sequence (P11712 whole entry): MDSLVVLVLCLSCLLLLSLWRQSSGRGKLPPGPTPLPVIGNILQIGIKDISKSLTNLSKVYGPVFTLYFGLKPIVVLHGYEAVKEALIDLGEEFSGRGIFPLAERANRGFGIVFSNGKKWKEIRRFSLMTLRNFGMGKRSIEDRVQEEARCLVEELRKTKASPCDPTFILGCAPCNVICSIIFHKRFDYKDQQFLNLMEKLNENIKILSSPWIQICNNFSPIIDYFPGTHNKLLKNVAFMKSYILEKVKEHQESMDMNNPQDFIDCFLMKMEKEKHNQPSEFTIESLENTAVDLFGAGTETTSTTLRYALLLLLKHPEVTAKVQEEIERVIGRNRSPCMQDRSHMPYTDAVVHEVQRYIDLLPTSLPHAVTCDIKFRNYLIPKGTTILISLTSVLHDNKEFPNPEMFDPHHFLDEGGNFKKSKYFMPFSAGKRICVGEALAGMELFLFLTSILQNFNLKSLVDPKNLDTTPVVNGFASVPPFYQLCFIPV
# ASSAY_PROTOCOL: Inhibition of CYP2C9 (unknown origin) at 10 uM relative to control
# Type: ADME

SMILES_RECORD: O=S(=O)(c1cccc(F)c1)n1ccc2c(N3CCNCC3)nc3ccccc3c21
inhibition at 10 µM: < 25%

Each recorded value in this set is attributed to ChEMBL document CHEMBL4842371.
